B1: Azoarcus group I ribozyme (parent)
chain: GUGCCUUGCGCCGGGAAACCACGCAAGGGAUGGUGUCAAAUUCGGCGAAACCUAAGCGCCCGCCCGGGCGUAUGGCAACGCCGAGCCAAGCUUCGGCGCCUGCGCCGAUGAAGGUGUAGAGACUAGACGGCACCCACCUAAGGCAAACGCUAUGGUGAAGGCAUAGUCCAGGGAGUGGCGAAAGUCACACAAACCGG

# Variants of: B1
# assay_method_text: reverse-splicing fitness (ratio to wild type); higher = more active; in vitro selection; Mg2+ level not given
readout_name: reverse-splicing fitness

* C82A A120U C150G | 0.0131
* C82U A111G A120U A145C C150G C169A U176C | 0.00258
* A111U A120U A145U C150U U176C | 0.174
* C82U A111U A120C A145C U176C | 0.0132
* C82A A111U A120C C150U C169G | 0.00831
* A111G A120G C150U C169U U176A | 0.0545
* A120U A145C C150A C169A U176A | 0.00216
* C82U A111G A120C A145U C169A U176A | 0.00844
* A120C C169G U176A | 0.016
* A111C A120U A145U C150U C169A U176A | 0.00293
* C82G A120G C150A C169G U176G | 0.00479
